experimental_endpoint: melting point

Problem: If you can, please state the reported melting point value of `CC1=CC(=O)C(=NNc2ccc(C#N)cc2)C(=O)O1` .
Solution: 300 °C

Problem: Now consider `COc1ccc(C=O)c(O)c1Cl` and answer again.
Solution: 114 to 117 °C

Problem: Quick one: `COC(=O)CCC(=O)c1ccc(-c2ccc(Cl)cc2F)cc1`
Solution: 90.5 to 92.5 °C

Problem: Please answer likewise for `O=c1ccc(S(=O)(=O)n2ccnc2)n[nH]1`
Solution: 55 to 60 °C

Problem: `Fc1ccc(F)c(N=C2CCCc3cc4c(nc32)C(=Nc2c(F)cccc2F)CCC4)c1` ?
Solution: 145 to 150 °C

====

experimental_endpoint: melting point

CCCCCS(=O)(=O)NC(=O)/C=C/c1cc(OCCCC)nn1Cc1ccc(Cl)cc1Cl	95 to 98 °C

Query compound follows.
Problem: Returns the measured melting point for the input compound. Input: `NS(=O)(=O)c1cc(C(=O)O)cc([N+](=O)[O-])c1Oc1ccc(Cl)cc1`
Solution: 248 °C

====

experimental_endpoint: melting point

These solved cases illustrate the format of a correct answer.
CC(C)c1ccccc1N1/C(=N\N=C/c2ccc(-c3ncn(-c4ccc(OC(F)(F)F)cc4)n3)cc2)SCC1(C)O (configuration not stated)	114 to 116 °C
CC(=NO)c1ccnc(N)c1	215 to 217 °C
Clc1ccc(CSCc2ccc(Cl)cc2)cc1	42 to 44 °C

Problem: Need melting point, item `CCOC(=O)CNc1ccc2c3c(n(CCCNC(=O)OC(C)(C)C)c(=O)c2c1)-c1ccccc1C3=O`
Solution: 203 to 204 °C

Problem: Entry to check: COCc1c2c(c(COC)n1-c1ccccc1)C(C)(C(N)=O)CC2(C)C (configuration not stated)
Solution: 168 to 170 °C

Problem: Thanks! And `CCn1c(=O)c(-c2cc(C)cc(C)c2)cc2cnc(Nc3ccccc3)nc21` ?
Solution: 220 to 223 °C

Problem: Check `CN(CCCNC(=O)NCCCCOc1cccc(CN2CCCCC2)c1)CCN(Cc1ccc(F)cc1)c1ccccn1` too.
Solution: 115 °C

Problem: Same read-out for `CCCCNC(C)=C1C(=O)OC(=O)C(C(C)=O)=C1O` ?
Solution: 112 to 114 °C

Problem: Try this compound next: COC(=O)C1=C(C)NC(=O)N(C(=O)OC)C1c1cccc(N)c1 (configuration not stated)
Solution: 190 to 193 °C

Problem: Next compound up: `Nc1nc(Nc2ccccc2)sc1C(=O)c1ccsc1`
Solution: 171 to 172 °C

Problem: Same for `CCCCN(c1cccc(-c2ccnc3c([N+](=O)[O-])cnn23)c1)S(C)(=O)=O`
Solution: 153 to 155 °C

====

Entries annotated with measured melting point

# count of solved cases: 3
Clc1cccc(Cc2ccc(OCCCn3cccn3)c(Cl)c2)c1	52.5 °C
CS(=O)(=O)Nc1ccccc1OC1CCCCC1	113 to 115 °C
Cn1c(C(CCN2CCC(O)(c3ccccc3)CC2)c2ccc(Cl)c(Cl)c2)cc2ccccc2c1=O (centres undefined)	100 to 102 °C

Next item in the queue.
Problem: Please report the recorded melting point for `CCc1nnc(NC(=O)C(c2ccccc2)c2ccccc2)o1` .
Solution: 123 to 125 °C

====

Below, each entry is listed with its recorded melting point.

Sample answers from the record:
O=C(Nc1ccc(Cl)cc1)C(Cl)CCl (stereo not given)	128 to 129 °C
CCCCOC(=O)[C@H]1CN(c2cc(F)c(N3CCOCC3)c(F)c2)C(=O)O1	99 to 100 °C
c1ccc2c(c1)OCC(CN1CCC(CNc3nc4ccccc4s3)CC1)O2 (stereo not given)	133 °C

Problem: Endpoint output: melting point of CC(C)(C)NCC(O)COc1ccccc1CCCc1cccc2[nH]ccc12 (stereo not given) . Value?
Solution: 96 °C

Problem: Another: `COc1cc(OC)c(C23CC4CC(CC(C4)C2)C3)cc1C#Cc1ccc(C(=O)O)cc1`
Solution: 152 to 154 °C

Problem: Try this compound too: `O=C(O)C(=O)c1ccc(OCCOCCOc2ccccc2)cc1`
Solution: 58 to 59 °C

Problem: Continue with `Cc1c(O)cccc1C(=O)N[C@@H](Cc1ccccc1)[C@H](O)C(=O)N1CSC(C)(C)[C@H]1C(=O)N[C@H]1C=CCCC1`
Solution: 193 to 195 °C

====

Recorded melting point by entry

O=C(O)c1ccccc1NCCCN1c2ccccc2CCc2ccccc21	170 to 172 °C
Cc1ncccc1Cn1nnnc1-c1ccc(Cl)c(Cl)c1	176 to 178 °C
OCc1cccc2sc(-c3ccccc3)nc12	116 to 117 °C
CC1N=C(c2ccccc2F)c2cc(Br)ccc2NC1=O (stereo not given)	183 to 185 °C
CC(C)(C)OC(=O)Nc1ccc(C(=O)N2CCC(c3[nH]nc4c3C(=O)c3c(NC(=O)NN5CCOCC5)cccc3-4)CC2)cc1	212 to 214 °C

Problem: Fill in the blank: the reported melting point of `O=C(O)c1cc(F)c(F)cc1Nc1ccnn1-c1ccccn1` is ____.
Solution: 242 to 245 °C

Problem: Here is the next compound: `CCCCc1nc2c(N)nc3ccc(OCc4ccccc4)cc3c2n1CCCCNS(=O)(=O)c1ccccc1`
Solution: 204 to 205 °C

====

experimental_endpoint: melting point

Before answering, review these 3 worked examples.
CCc1cc2c(s1)S(=O)(=O)Cc1cc(=O)n(-c3ccc(Cl)cc3)nc1-2	189 to 191 °C
O=C(O)C1CCc2c(Cc3ccc(Cl)cc3)cccc21 (centres undefined)	127 to 129 °C
CCOC(=O)c1cn(-c2ncc(F)c(NC(C)(C)C)n2)c2c(Cl)c(F)c(F)cc2c1=O	201 to 205 °C

Problem: # melting point lookup, item `CN1CCN(c2ccc(C(=O)CCC(=O)N3CCC(c4ccc(Cl)cc4)CC3)cc2)CC1`
Solution: 152 to 153 °C

====

// reported melting point per item

Below are worked cases with known answers.
COc1cc2c(cc1OC)CC(C(=O)O)C2	133 to 135 °C
COC(=O)c1ccc(C(=O)NS(=O)(=O)c2ccc(CCNC(=O)CC(C)C)cc2)cn1	176 to 178 °C

Could you now consider this next compound?
Problem: Name the recorded melting point for O=C1CC(Br)CCCCCCCCCN1 (centres undefined) .
Solution: 155 to 157 °C

====

compounds and their reported melting point

Some solved entries appear below for comparison.
COc1ccc(C(=O)[NH+]([O-])c2c(Cl)cncc2Cl)c2c1oc1ccc(C(F)(F)F)cc12 (stereo not drawn)	272 °C
CC(=O)Oc1ccc(OCc2ccccc2)cc1CC(Br)CBr (racemic)	72 to 74 °C

Would you kindly look at the next entry?
Problem: What measured melting point goes with `Nc1c(C(=O)O)c(=O)[nH]c2ccccc12` ?
Solution: > 250 °C

====

Quick list: melting point per entry.

Cc1nc2ccc3cccnc3c2nc1C	159 to 162 °C
CC(C)(C)OC(=O)NC1CCN(CC(F)(F)F)CC1	99.2 to 99.8 °C

Problem: // returns reported melting point for input `COC(=O)C1=C(C)CN(c2ccccc2)C1=O`
Solution: 143 to 145 °C

====

experimental_endpoint: melting point

Worked set:
CCC1C(C=O)=NN=C(c2ccc(OC)c(OC)c2)c2cc(OC)c(OC)cc21 (centres undefined)	103 to 105 °C
Cc1c(Cl)cc(NC(=O)C(=O)Nc2cc(Cl)c(C)c(Cl)c2O)c(O)c1Cl	330 °C
COC(=O)c1c(Nc2ccccc2)nn(C(C)=O)c1C	115 to 116 °C

Problem: Which melting point is reported for this molecule? `CCCCCCCCCCCCN=C=S`
Solution: 75 to 80 °C

====

experimental_endpoint: melting point

Problem: Fill in the blank: the reported melting point of O=C(Nc1ccc(CCN2C(=O)[C@H]3CCC[C@H]3N(C(=O)CN3C(=O)c4ccccc4C3=O)c3ccccc32)cc1)OCc1ccccc1 (relative stereo) is ____.
Solution: 152 to 154 °C

====

Listed below: melting point values for each entry.

// worked examples, melting point included
CCCc1nc(C(C)(C)O)c(C(=O)O)n1Cc1ccc(-c2ccccc2-c2nnn[nH]2)cc1	166 to 169 °C
CCCCc1nc(C)c(CCC(=S)N(CC)CC)c(=O)n1Cc1ccc(-c2ccccc2-c2nnn[nH]2)cc1	77.8 to 81.1 °C

Now for a further compound.
Problem: What value of melting point has been reported for the following compound? `O=S(=O)(Nc1ccc(N2CCN3CCC2CC3)cc1)c1ccccc1`
Solution: 267 °C

====

experimental_endpoint: melting point

Problem: Can you look up the measured melting point of `CCCC(=O)c1cnc2c(C)cccc2c1Nc1ccc(Cl)cc1C` for me?
Solution: 166 to 167 °C

Problem: Would you kindly repeat that for `COc1ccc2cnc(N)nc2c1C1CCCC1` ?
Solution: 181 to 183 °C

Problem: Ok, now Cc1cc(Br)c2c(c1)C(C(=O)O)c1ccccc1CO2 (centres undefined)
Solution: 196 to 197 °C

Problem: # repeat for `CC(C)(C)C=C/C=C/C(C)(C)C`
Solution: 78 to 79 °C

Problem: What do we get for CCOc1ccc(-c2nc(-c3ccc(OC4OC(CO)C(O)C(O)C4O)cc3)cs2)cc1OCC (centres undefined) ?
Solution: 138 to 140 °C

Problem: Also need `CN(C)CCOc1ccc2c(c1)[nH]c(=O)c1c3ccccc3oc21` , thanks.
Solution: 213 to 217 °C

Problem: `N#CSCSc1sccc1[N+](=O)[O-]` , same question.
Solution: 51 to 53 °C

Problem: One more molecule: `O=C(C=Cc1ccccc1)C(Cc1ccccc1)(Cc1ccccc1)C(=O)C=Cc1ccccc1`
Solution: 182 to 183 °C

Problem: What would you report for CN(C)CCC(O)c1ccccc1 (centres undefined) ?
Solution: 45 to 46 °C

Problem: Also `N#CCCn1[nH]c(C#N)cc1=O` ?
Solution: 162 to 164 °C

Problem: Thanks! And CCC(C)n1nc(C)n(-c2ccc(N3CCCN(c4ccc(C(=O)OC)cc4)CC3)cc2)c1=O (centres undefined) ?
Solution: 152 to 153 °C

Problem: Item: `C(=C1COc2ccc3c4c(nnc1c24)C(=Cc1ccccc1)CO3)c1ccccc1`
Solution: 242 °C

Problem: Okay, and `Cc1cc(C(=O)OC(C)(C)C)c(NC(=O)Nc2ccc(Oc3ccccc3)cc2)s1` ?
Solution: 130 to 132 °C

Problem: Let us now turn to `CC(C)n1nc(-c2c(OCCF)nc(N)nc2-c2ccccc2)ccc1=O`
Solution: 129 to 130 °C
